Target: AhR (Homo sapiens)
Sequence (P35869 11-848): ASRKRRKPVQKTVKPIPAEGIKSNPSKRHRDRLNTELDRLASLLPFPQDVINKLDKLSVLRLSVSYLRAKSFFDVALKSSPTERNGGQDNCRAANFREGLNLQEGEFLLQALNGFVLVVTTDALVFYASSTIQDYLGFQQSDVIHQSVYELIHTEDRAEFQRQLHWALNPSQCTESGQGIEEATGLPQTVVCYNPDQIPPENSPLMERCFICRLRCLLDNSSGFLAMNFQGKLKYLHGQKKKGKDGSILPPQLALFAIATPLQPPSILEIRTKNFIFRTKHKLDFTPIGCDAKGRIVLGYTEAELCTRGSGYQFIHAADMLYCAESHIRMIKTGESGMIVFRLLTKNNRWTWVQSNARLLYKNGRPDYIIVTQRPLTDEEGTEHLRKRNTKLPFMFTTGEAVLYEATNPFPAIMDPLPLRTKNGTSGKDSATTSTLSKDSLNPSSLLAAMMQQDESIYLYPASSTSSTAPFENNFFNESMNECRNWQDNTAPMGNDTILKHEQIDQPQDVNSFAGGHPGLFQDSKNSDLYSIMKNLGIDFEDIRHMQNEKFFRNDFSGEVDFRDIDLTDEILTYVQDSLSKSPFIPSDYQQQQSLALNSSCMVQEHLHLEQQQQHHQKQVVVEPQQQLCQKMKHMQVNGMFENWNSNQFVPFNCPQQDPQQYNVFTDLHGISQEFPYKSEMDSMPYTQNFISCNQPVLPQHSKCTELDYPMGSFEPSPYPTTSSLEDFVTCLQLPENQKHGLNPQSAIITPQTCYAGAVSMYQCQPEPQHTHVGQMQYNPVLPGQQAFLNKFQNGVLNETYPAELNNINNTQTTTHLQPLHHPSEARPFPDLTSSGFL
Assay: AhR inhibitory activity experiment, in vitro assay 1: HepG2-Lucia AhR cells, Lucia luciferase reporter (QUANTI-Luc)
Conditions: 24 hours incubation at 37° C., Lucia luciferase in supernatant, read-out: AhR inhibitory activity C50
Description: Test Example: AhR Inhibitory Activity Experiment When QUANTI-Luc™ (InvivoGen Company) testing reagents are used, AhR gene signaling pathways can be studied by monitoring the activity of Lucia luciferase in the cell culture supernatant. In Vitro Assay 1: Assay on Inhibitory Activity in Human Cell Lines Adherent cell layers of HepG2-Lucia™ AhR cells in a logarithmic growth phase were washed with PBS, and then the cells were isolated with trypsin. […]
Catalogue of IC50 values
PARAMETER_MEASURED: IC50

INSERT INTO results (structure_notation, obs_value) VALUES
  ('C[C@H](NC(=O)c1cc(-c2ccnc(F)c2)nc(-c2cnn(C)c2)n1)c1ccnc(F)c1', '> 1000 nM'),
  ('Cc1noc(C)c1-c1nc(C(=O)N[C@@H](C)c2ccnc(F)c2)cc(-c2ccc(Cl)cc2)n1', '> 1000 nM'),
  ('Cn1cc(-c2nc(C(=O)NC3(C)CCN(CC(N)=O)CC3)cc(-c3ccc(Cl)cc3)n2)cn1', '< 50 nM'),
  ('Cn1cc(-c2nc(C(=O)N[C@H]3CC(C)(C)c4ccccc43)cc(-c3ccc(Cl)cc3)n2)cn1', '> 1000 nM'),
  ('Cn1cc(-c2nc(C(=O)Nc3n[nH]c4ccccc34)cc(-c3ccc(Cl)cc3)n2)cn1', '> 1000 nM'),
  ('C[C@H](NC(=O)c1cc(-c2ccc(Cl)cc2)nc(-c2cnn(C)c2)n1)c1ccnc(C(F)(F)F)c1', '< 50 nM'),
  ('Cn1cc(-c2nc(C(=O)N[C@H]3CCc4ccc(F)cc43)cc(-c3ccc(Cl)cc3)n2)cn1', '50 to 200 nM');
